Assay: Odor threshold and odor value of perfuming compounds (Tables 4 to 10)
Conditions: Table 8, perfuming compounds having a sweet note
Records here are stratified by Odor Threshold; strata: lo = under 0.0001 μg/l air, mid = from 0.0001 μg/l air up to 0.004 μg/l air, hi = 0.004 μg/l air and over

As a guide, the following entries are already answered.
// bin(item) where item = C=CCOC(=O)CCCCCC [ALLYL HEPTANOATE]
hi

# bin lookup: classify CCCCCC(=O)O [HEXANOIC ACID] by its Odor Threshold
hi

Using the reported Odor Threshold, which band applies to COc1cc(C=O)ccc1O [4-hydroxy-3-methoxybenzaldehyde] ?
lo

Sort into band: COc1ccc(CCC(C)=O)cc1 [4-(4-METHOXYPHENYL)-2-BUTANONE]
lo

Class? Entry: CC(C)C(=O)OCCc1ccccc1 [2-PHENYLETHYL ISOBUTYRATE]
hi

Continuing:
# bin lookup: classify CCOC(=O)CC1(C)OCCO1 [ETHYL 2-METHYL-1,3-DIOXOLANE-2-ACETATE] by its Odor Threshold
mid

Lab log: CCCCCC1CCCC1O (racemic) [(+−)-2-PENTYL-1-CYCLOPENTANOL] — assign Odor Threshold category
hi

Assign a bin to C=CCOC(=O)CCC1CCCCC1 [ALLYL 3-CYCLOHEXYLPROPANOATE]
hi

# bin lookup: classify C/C=C/c1ccc(O)c(OC)c1 [2-methoxy-4-[(1E)-1-propen-1-yl]phenol] by its Odor Threshold
lo

Assign a bin to CC/C=C\CCOC(=O)C/C=C\CC [(3Z)-3-hexen-1-yl (3Z)-3-hexenoate]
hi

Tag the class for CC(C)(C)C(=O)OCCc1ccccc1 [2-PHENYLETHYL PIVALATE]
hi

Please report the category associated with CC=CC(=O)C(C)CC (centres unmarked) [5-METHYL-2-HEPTEN-4-ONE] , nothing else.
lo

State the class of the compound shown: C=C(C)CC(C)OC(=O)C(C)C (racemic)
hi

Which class holds CCc1occc(=O)c1O [2-ETHYL-3-HYDROXY-4(4H)-PYRANONE] ?
lo

Could you tell me which band "COc1cc(C=O)ccc1OC(=O)C(C)C" belongs to?
lo

Where would CC(C)CC(=O)OCc1ccccc1 [BENZYL 3-METHYLBUTANOATE] land among the classes by reported Odor Threshold?
hi

Bin? CC(C)Cc1ccc2ccccc2n1 [2-ISOBUTYLQUINOLINE]
mid

Form field 'band' for CC1=C(O)C(=O)CC1 [2-HYDROXY-3-METHYL-2-CYCLOPENTEN-1-ONE]
mid

// bin(item) where item = COC(=O)Cc1ccccc1 [METHYL PHENYLACETATE]
mid

Hey, which category is CC(=O)OCCc1ccccc1 [2-PHENYLETHYL ACETATE] in, do you know?
mid

Using the reported Odor Threshold, which band applies to CCC(CC(C)CC)=NO (centres unmarked) [5-METHYL-3-HEPTANONE OXIME] ?
hi

Record COc1cc(C)ccc1O [2-METHOXY-4-METHYLPHENOL] — which class?
mid

Field: class (Odor Threshold) — entry: O=C1CCCCCCCCCCC(=O)OCCO1 [1,4-dioxacyclohexadecane-5,16-dione]
mid

Please indicate the class for CCCCC[C@@H]1OC(=O)C[C@H]1C (racemic) [(+−)-TRANS-3-METHYL-4-NONANOLIDE] based on its Odor Threshold.
mid
